- Test system: Methicillin-resistant Staphylococcus aureus (MRSA NRS-123, USA400)
- MEASUREMENT PROTOCOL: MIC of active MY compounds
- Format: cell-based
- TEST CONTEXT: read-out: MIC MRSA NRS123 (USA400)
Task for the reader: assign each of the following molecules its reported MIC.
Numbers only, in µg/mL.

# annotated cases, reported MIC shown
MOLECULE	MIC / µg/mL
CNC(=O)c1cc(Oc2ccc(NC(=O)Nc3ccc(Cl)c(C(F)(F)F)c3)cc2)ccn1 [Sorafenib, reference compound]	4
CC(=O)NC[C@H]1CN(c2ccc(N3CCOCC3)c(F)c2)C(=O)O1 [Linezolid, reference compound]	1
CN[C@H](CC(C)C)C(=O)N[C@H]1C(=O)N[C@@H](CC(N)=O)C(=O)N[C@H]2C(=O)N[C@H]3C(=O)N[C@H](C(=O)N[C@H](C(=O)O)c4cc(O)cc(O)c4-c4cc3ccc4O)[C@H](O)c3ccc(c(Cl)c3)Oc3cc2cc(c3O[C@@H]2O[C@H](CO)[C@@H](O)[C@H](O)[C@H]2O[C@H]2C[C@](C)(N)[C@H](O)[C@H](C)O2)Oc2ccc(cc2Cl)[C@H]1O [Vancomycin, reference compound]	1

State the recorded MIC for every item in the following list.
1. O=C(Nc1cccc(Nc2ccc(Cl)nn2)c1)Nc1ccc(Cl)c(Cl)c1 [MY14]
2. O=C(Nc1ccc(Oc2ccc(=O)[nH]n2)cc1)Nc1ccc(Cl)c(Cl)c1 [MY24]

4
1

Return reported MIC values for all items listed beneath this line.
1. O=C(Nc1ccc(Oc2ccc(=O)[nH]n2)cc1)Nc1ccc(Cl)c(C(F)(F)F)c1 [MY31]
2. O=C(Nc1ccc(-c2ccc(=O)[nH]n2)cc1)Nc1ccc(Cl)c(Cl)c1 [MY21]

[0.5, 1]
